- PROCEDURE_SUMMARY: Intrinsic clearance in human liver microsomes at 0.5 uM preincubated with NADPH and measured up to 30 mins by LC-MS/MS analysis
- Assay type: ADME, microsome
A collection of molecules and their measured log10 CLH
ASSAY_ENDPOINT: log10 CLH (log10 of the value in mL/min/g)

INSERT INTO results (molecule, result) VALUES
  ('CC(C)(C)c1ccc(CN2CCC3(CC2)OCCc2sccc23)cc1', 1.00),
  ('c1cc2c(s1)CCOC21CCN(Cc2ccc3c(c2)CCCC3)CC1', 1.35),
  ('Cn1cc(CN2CCC3(CC2)OCCc2sccc23)c2ccccc21', 0.65),
  ('c1cc2c(s1)CCOC21CCN(Cc2ccc3c(c2)CCCO3)CC1', 0.46),
  ('CC(C)(C)c1ccc(CN2CCC3(CCOCC3)CC2)cc1', -0.02),
  ('CC(C)(C)c1ccc(CN2CCC3(CC2)OCCCO3)cc1', 0.15),
  ('CC(C)(C)c1ccc(CN2CCC3(CCCOC3)CC2)cc1', 0.86),
  ('Cc1ccc(CN2CCC3(CC2)OCCc2sccc23)[nH]1', 0.61),
  ('Cc1ccc(CN2CCC3(CC2)OCCc2sccc23)cc1', 1.35),
  ('FC(F)(F)Oc1ccc(Oc2ccc(CN3CCC4(CCCCC4)CC3)cc2)cc1', -0.30),
  ('c1cc2c(s1)CCOC21CCN(Cc2ccc3c(c2)OCCO3)CC1', 1.40),
  ('c1ccc(Oc2ccc(CN3CCC4(CC3)OCCc3sccc34)cc2)cc1', 1.08),
  ('FC(F)(F)Oc1ccc(Oc2ccc(CN3CCC4(CCCO4)CC3)cc2)cc1', 0.18),
  ('Brc1ccc(Nc2ccc(CN3CCC4(CC3)OCCc3sccc34)cc2)cc1', 0.18),
  ('Cc1cccc(CN2CCC3(CC2)OCCc2sccc23)c1', 0.72),
  ('FS(F)(F)(F)(F)c1ccc(CN2CCC3(CC2)OCCc2sccc23)cc1', 0.48),
  ('CC(c1ccc(C(F)(F)F)cc1)N1CCC2(CC1)OCCc1sccc12 (stereo not drawn)', 0.66);
